System: NAGS
Binarize NAGS expression, Fold change (Log 2) vs untreated at 1 Log 2; below is YES, at or above is NO.

- compound: "COc1cc2c(cc1OC)CN(C(=O)/C=C/c1c(-c3ccccc3)n(C)c3ncccc13)CC2"
  className: "YES"
- compound: "O=C1NC(=O)/C(=C/c2cccc(C(F)(F)F)c2)S1"
  className: "NO"
- compound: "[H]/N=C(/N)N/C(=N/[H])NCCc1ccccc1"
  className: "NO"
- compound: "O=C1CCC(N2C(=O)c3ccccc3C2=O)C(=O)N1 (centres unmarked) [Thalidomide]"
  className: "NO"
- compound: "O=C(NCCCn1ccnc1)c1cc(-c2ccco2)on1"
  className: "YES"
- compound: "COCCOCOc1cc2ccc(-c3ccc(C(=O)O)cc3)cc2cc1C12CC3CC(CC(C3)C1)C2"
  className: "YES"
- compound: "O=S(=O)(c1ccccc1)N(CC(F)(F)F)c1ccc(C(O)(C(F)(F)F)C(F)(F)F)cc1"
  className: "YES"
- compound: "C=CC(=O)Nc1cccc(Nc2nc(Nc3ccc(N4CCN(C(C)=O)CC4)cc3OC)ncc2C(F)(F)F)c1 [CO-1686 (Rociletinib), Rociletinib]"
  className: "NO"
